These entries and their values trace back to patent US20260297109A1.

system_tested: SAE (Homo sapiens)
Construct: endogenous in cells; host or cells: HCT116
assay_text: SUMO IF: in vitro inhibitory activity assay against SAE in HCT116 cells (SUMO-2/3 immunofluorescence)
Type: cell-based
assay_conditions: class symbols, 6 h at 37° C.
pIC50: −log10 of the molar value.

molecule: NS(=O)(=O)OC[C@H]1[C@H](F)[C@@H](Nc2ncncc2C(=O)c2cc3c(s2)C(F)(F)C[C@@]32NCCc3ccc(Cl)cc32)C[C@@H]1O
pIC50: < 6.70

molecule: NS(=O)(=O)OC[C@H]1[C@H](F)[C@@H](Nc2ncncc2C(=O)c2cc3c(s2)COCC32NCCc3ccc(Cl)cc32)C[C@@H]1O (stereo partly drawn)
pIC50: 6.70 to 7.30

molecule: NS(=O)(=O)OC[C@H]1[C@H](F)[C@@H](Nc2ncncc2C(=O)c2cc3c(s2)C(=O)C[C@]32NCCc3ccc(Cl)cc32)C[C@@H]1O
pIC50: 6.70 to 7.30

----------
system_tested: SAE (Homo sapiens, UniProt Q9UBT2)
Construct: endogenous in cells; host or cells: HCT116
assay_text: SUMO IF: in vitro inhibitory activity assay against SAE in HCT116 cells (SUMO-2/3 immunofluorescence)
Assay type: cell-based
assay_conditions: class symbols, 6 h at 37° C.
pIC50: −log10 of the molar value.
readout_type: pIC50

compound: NS(=O)(=O)OC[C@H]1[C@H](F)[C@@H](Nc2ncncc2C(=O)c2cc3c(s2)CC[C@]32NC3(CC3)Cc3ccc(Cl)cc32)C[C@@H]1O
experimental_value: 6.70 to 7.30

compound: NS(=O)(=O)OC[C@H]1[C@H](F)[C@@H](Nc2ncncc2C(=O)c2cc3c(s2)CCC[C@]32NCCc3cc(F)c(Cl)c(F)c32)C[C@@H]1O
experimental_value: ≥ 7.30

compound: NS(=O)(=O)OC[C@H]1[C@H](F)[C@@H](Nc2ncncc2C(=O)c2cc3c(s2)COCC32NCCc3ccccc32)C[C@@H]1O (stereo partly drawn)
experimental_value: < 6.70

compound: Cc1sc(C(=O)c2cncnc2N[C@H]2C[C@H](O)[C@@H](COS(N)(=O)=O)[C@@H]2F)cc1C1NCCc2cc(Cl)c(F)cc21 (stereo partly drawn)
experimental_value: 6.70 to 7.30

compound: Nc1sc(C(=O)c2cncnc2N[C@H]2C[C@H](O)[C@@H](COS(N)(=O)=O)[C@@H]2F)cc1C1NCCc2ccc(Cl)cc21 (stereo partly drawn)
experimental_value: 6.70 to 7.30

compound: NS(=O)(=O)OC[C@H]1[C@H](F)[C@@H](Nc2ncncc2C(=O)c2cc3c(s2)COCC32NCCc3ccc(Cl)c(Cl)c32)C[C@@H]1O (stereo partly drawn)
experimental_value: 6.70 to 7.30

----------
system_tested: SAE (Homo sapiens, UniProt Q9UBT2)
Construct: endogenous in cells; host or cells: HCT116
assay_text: SUMO IF: in vitro inhibitory activity assay against SAE in HCT116 cells (SUMO-2/3 immunofluorescence)
Assay type: cell-based
assay_conditions: class symbols, 6 h at 37° C.
pIC50: −log10 of the molar value.
Items are presented alongside their recorded pIC50.

molecule: N#Cc1ccc2c(c1)[C@@]1(CCCc3sc(C(=O)c4cncnc4N[C@H]4C[C@H](O)[C@@H](COS(N)(=O)=O)[C@@H]4F)cc31)OCC2 [Compound 716]
system_tested: SAE (Homo sapiens, UniProt Q9UBT2)
pIC50: ≥ 7.30
//
molecule: NS(=O)(=O)OC[C@H]1[C@H](F)[C@@H](Nc2ncncc2C(=O)c2nc3c(s2)CCCC32NCCc3ccc(Cl)cc32)C[C@@H]1O (stereo partly drawn) [Compound 585]
system_tested: SAE (Homo sapiens, UniProt Q9UBT2)
pIC50: < 6.70
//
molecule: Cc1sc(C(=O)c2cncnc2N[C@H]2C[C@H](O)[C@@H](COS(N)(=O)=O)[C@@H]2F)cc1[C@H]1NCCc2ccccc21 [Compound 231]
system_tested: SAE (Homo sapiens, UniProt Q9UBT2)
pIC50: < 6.70
//
molecule: NS(=O)(=O)OC[C@H]1[C@H](F)[C@@H](Nc2ncncc2C(=O)c2cc3c(s2)CCC[C@]32NCCc3ccc(C(F)(F)F)cc32)C[C@@H]1O [Compound 669]
system_tested: SAE (Homo sapiens, UniProt Q9UBT2)
pIC50: 6.70 to 7.30
//
molecule: NS(=O)(=O)OC[C@H]1[C@H](F)[C@@H](Nc2ncncc2C(=O)c2cc3c(s2)CCCC32OCCc3ccc(Cl)cc32)C[C@@H]1O (stereo partly drawn) [Compound 126]
system_tested: SAE (Homo sapiens, UniProt Q9UBT2)
pIC50: ≥ 7.30
//
molecule: CCN1Cc2sc(C(=O)c3cncnc3N[C@H]3C[C@H](O)[C@@H](COS(N)(=O)=O)[C@@H]3F)cc2[C@@]2(C1)OCCc1ccc(F)cc12 [Compound 727]
system_tested: SAE (Homo sapiens, UniProt Q9UBT2)
pIC50: < 6.70

----------
assay_text: In vivo pharmacokinetic experiment in CD-1 female mice, intravenous
assay_conditions: mouse, in vivo, iv, 1 mg/kg, CD-1 mice, 1 mpk, read-out: Whole blood Cmax/plasma Cmax ratio

compound: Cc1sc(C(=O)c2cncnc2N[C@H]2C[C@H](O)[C@@H](COS(N)(=O)=O)[C@@H]2F)cc1[C@@H]1NCCc2ccc(Cl)cc21 [Compound 233]
blood plasma ratio: 76.3

----------
system_tested: SAE (Homo sapiens)
Construct: endogenous in cells; host or cells: HCT116
Sequence (Q9UBT2 1-640): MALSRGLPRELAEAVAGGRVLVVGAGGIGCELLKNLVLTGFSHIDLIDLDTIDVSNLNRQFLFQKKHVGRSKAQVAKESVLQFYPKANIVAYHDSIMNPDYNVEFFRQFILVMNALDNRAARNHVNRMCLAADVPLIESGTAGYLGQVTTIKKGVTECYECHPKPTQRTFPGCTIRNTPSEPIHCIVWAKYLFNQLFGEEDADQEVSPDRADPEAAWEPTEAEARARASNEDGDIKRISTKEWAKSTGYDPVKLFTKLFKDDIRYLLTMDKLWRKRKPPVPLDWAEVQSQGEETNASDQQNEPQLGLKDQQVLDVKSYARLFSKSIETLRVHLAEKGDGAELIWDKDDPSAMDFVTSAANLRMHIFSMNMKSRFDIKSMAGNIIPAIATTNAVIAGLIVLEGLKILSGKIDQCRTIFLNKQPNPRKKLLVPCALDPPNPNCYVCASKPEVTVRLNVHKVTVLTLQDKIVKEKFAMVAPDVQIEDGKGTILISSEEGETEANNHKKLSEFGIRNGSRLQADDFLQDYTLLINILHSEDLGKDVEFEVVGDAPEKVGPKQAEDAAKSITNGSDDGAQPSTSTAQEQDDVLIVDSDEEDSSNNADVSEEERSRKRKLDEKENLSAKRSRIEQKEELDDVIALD
Sequence (Q9UBE0 1-346): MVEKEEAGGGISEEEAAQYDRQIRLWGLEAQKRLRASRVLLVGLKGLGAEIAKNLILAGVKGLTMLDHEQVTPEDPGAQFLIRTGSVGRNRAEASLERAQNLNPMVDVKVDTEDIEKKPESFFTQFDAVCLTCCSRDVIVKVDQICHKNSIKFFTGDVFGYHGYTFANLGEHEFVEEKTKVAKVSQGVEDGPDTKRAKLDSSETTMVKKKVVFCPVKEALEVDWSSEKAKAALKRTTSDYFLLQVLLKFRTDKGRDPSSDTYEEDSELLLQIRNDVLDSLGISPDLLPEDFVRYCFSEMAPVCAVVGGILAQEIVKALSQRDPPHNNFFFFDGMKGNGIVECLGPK
assay_text: SUMO IF: in vitro inhibitory activity assay against SAE in HCT116 cells (SUMO-2/3 immunofluorescence)
Type: cell-based
assay_conditions: numeric values, 6 h at 37° C.
Method: Biological Example 1. In Vitro Inhibitory Activity Assay of Compounds of the Present Disclosure Against SAE HCT116 cells were seeded into a 96-well black transparent bottom plate at about 20000/well with 90 μL per well. The cells were incubated at 37° C. overnight for 24 h. […] The fluorescence signal of the sample was detected and compared to the DMSO group, and the inhibition rate and IC50 were calculated.
pIC50: −log10 of the molar value.
Items are presented alongside their recorded pIC50.

test_smiles: NS(=O)(=O)OC[C@H]1[C@H](F)[C@@H](Nc2ncncc2C(=O)c2cc3c(s2)C=C[C@]32NCCc3ccc(Cl)cc32)C[C@@H]1O
bound_type: =
pIC50: 7.68

test_smiles: NS(=O)(=O)OC[C@H]1[C@H](F)[C@@H](Nc2ncncc2C(=O)c2cc3c(s2)CN(CC(F)(F)F)C[C@@]32NCCc3ccc(Cl)cc32)C[C@@H]1O
bound_type: <
pIC50: 6.00

test_smiles: Cc1sc(C(=O)c2cncnc2N[C@H]2C[C@H](O)[C@@H](COS(N)(=O)=O)[C@@H]2F)cc1[C@H]1NCCc2ccc(Cl)cc21
bound_type: <
pIC50: 6.00

test_smiles: Cc1sc(C(=O)c2cncnc2N[C@H]2C[C@H](O)[C@@H](COS(N)(=O)=O)[C@@H]2F)cc1[C@@H]1NCCc2ccc(F)cc21
bound_type: =
pIC50: 7.14

test_smiles: CC(C)N1Cc2sc(C(=O)c3cncnc3N[C@H]3C[C@H](O)[C@@H](COS(N)(=O)=O)[C@@H]3F)cc2[C@]2(C1)NCCc1ccc(Cl)cc12
bound_type: =
pIC50: 7.66

test_smiles: NS(=O)(=O)OC[C@H]1[C@H](F)[C@@H](Nc2ncncc2C(=O)c2cc3c(s2)CC[C@@]32NCCc3ccc(Cl)cc32)C[C@@H]1O
bound_type: <
pIC50: 6.00

test_smiles: NS(=O)(=O)OC[C@H]1[C@H](F)[C@@H](Nc2ncncc2C(=O)c2cc3c(s2)CCC[C@@]32NCCc3ccc(F)cc32)C[C@@H]1O
bound_type: <
pIC50: 6.00

test_smiles: CC(C)N1Cc2sc(C(=O)c3cncnc3N[C@H]3C[C@H](O)[C@@H](COS(N)(=O)=O)[C@@H]3F)cc2[C@@]2(C1)NCCc1ccc(Cl)cc12
bound_type: <
pIC50: 6.00

test_smiles: CN1Cc2sc(C(=O)c3cncnc3N[C@H]3C[C@H](O)[C@@H](COS(N)(=O)=O)[C@@H]3F)cc2[C@@]2(C1)NCCc1ccc(Cl)cc12
bound_type: <
pIC50: 6.00

test_smiles: CN1Cc2sc(C(=O)c3cncnc3N[C@H]3C[C@H](O)[C@@H](COS(N)(=O)=O)[C@@H]3F)cc2[C@]2(C1)NCCc1ccc(Cl)cc12
bound_type: =
pIC50: 7.53

test_smiles: NS(=O)(=O)OC[C@H]1[C@H](F)[C@@H](Nc2ncncc2C(=O)c2cc3c(s2)CC[C@@]32NCCc3ccccc32)C[C@@H]1O
bound_type: <
pIC50: 6.00

test_smiles: [2H]C1([2H])CN[C@]2(CCCc3sc(C(=O)c4cncnc4N[C@H]4C[C@H](O)[C@@H](COS(N)(=O)=O)[C@@H]4F)cc32)c2cc(Cl)ccc21
bound_type: =
pIC50: 7.69

test_smiles: CCN1Cc2sc(C(=O)c3cncnc3N[C@H]3C[C@H](O)[C@@H](COS(N)(=O)=O)[C@@H]3F)cc2[C@@]2(C1)NCCc1ccc(Cl)cc12
bound_type: <
pIC50: 6.00

test_smiles: Cc1sc(C(=O)c2cncnc2N[C@H]2C[C@H](O)[C@@H](COS(N)(=O)=O)[C@@H]2F)cc1[C@@H]1NCCc2ccc(Cl)cc21
bound_type: =
pIC50: 7.37

test_smiles: CCN1Cc2sc(C(=O)c3cncnc3N[C@H]3C[C@H](O)[C@@H](COS(N)(=O)=O)[C@@H]3F)cc2[C@]2(C1)NCCc1ccc(Cl)cc12
bound_type: =
pIC50: 7.70

test_smiles: NS(=O)(=O)OC[C@H]1[C@H](F)[C@@H](Nc2ncncc2C(=O)c2cc3c(s2)COC[C@@]32NCCc3ccc(Cl)cc32)C[C@@H]1O
bound_type: <
pIC50: 6.00

test_smiles: NS(=O)(=O)OC[C@H]1[C@H](F)[C@@H](Nc2ncncc2C(=O)c2cc3c(s2)CCC[C@]32NCCc3ccc(Cl)cc32)C[C@@H]1O
bound_type: =
pIC50: 7.68

test_smiles: NS(=O)(=O)OC[C@H]1[C@H](F)[C@@H](Nc2ncncc2C(=O)c2cc3c(s2)CCC[C@@]32NCCc3ccc(Cl)cc32)C[C@@H]1O
bound_type: <
pIC50: 6.00

test_smiles: C=CCN1Cc2sc(C(=O)c3cncnc3N[C@H]3C[C@H](O)[C@@H](COS(N)(=O)=O)[C@@H]3F)cc2[C@@]2(C1)NCCc1ccc(Cl)cc12
bound_type: <
pIC50: 6.00

test_smiles: Cc1sc(C(=O)c2cncnc2N[C@H]2C[C@H](O)[C@@H](COS(N)(=O)=O)[C@@H]2F)cc1[C@H]1NCCc2ccc(F)cc21
bound_type: <
pIC50: 6.00

test_smiles: NS(=O)(=O)OC[C@H]1[C@H](F)[C@@H](Nc2ncncc2C(=O)c2cc3c(s2)CC[C@]32NCCc3ccccc32)C[C@@H]1O
bound_type: =
pIC50: 6.92

test_smiles: [2H]C1([2H])Cc2ccc(Cl)cc2[C@@]2(CCCc3sc(C(=O)c4cncnc4N[C@H]4C[C@H](O)[C@@H](COS(N)(=O)=O)[C@@H]4F)cc32)N1
bound_type: =
pIC50: 7.63

test_smiles: NS(=O)(=O)OC[C@H]1[C@H](F)[C@@H](Nc2ncncc2C(=O)c2cc3c(s2)CC[C@]32NCCc3ccc(F)cc32)C[C@@H]1O
bound_type: =
pIC50: 7.31
